# target desc: human ΔF508-CFTR (Homo sapiens, UniProt P13569, DEL508-508)
# Sequence (P13569 with tags, fused parts or gaps DEL508-508): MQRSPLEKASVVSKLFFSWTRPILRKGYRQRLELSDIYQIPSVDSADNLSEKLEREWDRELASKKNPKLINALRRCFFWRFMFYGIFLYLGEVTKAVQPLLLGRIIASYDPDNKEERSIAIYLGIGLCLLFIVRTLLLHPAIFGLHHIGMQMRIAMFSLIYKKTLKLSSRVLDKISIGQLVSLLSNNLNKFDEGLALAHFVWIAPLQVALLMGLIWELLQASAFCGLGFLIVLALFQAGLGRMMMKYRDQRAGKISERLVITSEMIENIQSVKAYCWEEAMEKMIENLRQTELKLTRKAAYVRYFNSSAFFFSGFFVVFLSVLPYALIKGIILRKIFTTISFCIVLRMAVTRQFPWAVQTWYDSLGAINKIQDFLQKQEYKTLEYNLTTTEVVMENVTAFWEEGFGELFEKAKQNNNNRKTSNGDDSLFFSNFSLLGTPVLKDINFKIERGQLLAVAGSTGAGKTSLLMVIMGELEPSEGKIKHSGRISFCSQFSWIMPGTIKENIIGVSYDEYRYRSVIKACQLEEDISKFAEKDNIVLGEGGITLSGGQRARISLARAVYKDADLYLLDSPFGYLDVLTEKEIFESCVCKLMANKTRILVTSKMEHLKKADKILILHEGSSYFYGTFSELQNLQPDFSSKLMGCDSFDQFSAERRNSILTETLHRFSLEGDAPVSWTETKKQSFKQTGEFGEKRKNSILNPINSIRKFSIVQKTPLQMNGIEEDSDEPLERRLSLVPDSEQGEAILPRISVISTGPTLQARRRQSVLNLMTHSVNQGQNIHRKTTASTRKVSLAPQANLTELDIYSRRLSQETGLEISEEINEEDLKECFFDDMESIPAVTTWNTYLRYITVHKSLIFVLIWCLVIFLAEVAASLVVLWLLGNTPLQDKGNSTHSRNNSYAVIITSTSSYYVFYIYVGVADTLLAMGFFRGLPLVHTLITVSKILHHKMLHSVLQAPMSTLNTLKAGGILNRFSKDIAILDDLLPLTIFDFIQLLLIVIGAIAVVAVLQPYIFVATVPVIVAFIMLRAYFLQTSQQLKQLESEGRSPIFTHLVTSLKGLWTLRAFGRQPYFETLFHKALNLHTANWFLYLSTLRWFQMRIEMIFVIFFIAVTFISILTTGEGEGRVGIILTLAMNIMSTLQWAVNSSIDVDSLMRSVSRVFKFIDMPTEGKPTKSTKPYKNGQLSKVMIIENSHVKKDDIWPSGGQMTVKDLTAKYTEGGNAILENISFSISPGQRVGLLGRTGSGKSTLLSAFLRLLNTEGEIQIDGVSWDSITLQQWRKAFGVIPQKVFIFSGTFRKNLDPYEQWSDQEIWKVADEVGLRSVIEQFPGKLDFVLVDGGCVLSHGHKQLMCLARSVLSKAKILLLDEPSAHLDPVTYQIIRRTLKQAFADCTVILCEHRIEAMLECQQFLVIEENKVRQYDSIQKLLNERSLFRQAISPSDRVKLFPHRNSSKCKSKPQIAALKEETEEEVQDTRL
# assay explanation: CFTR-YFP High Throughput Assay (YFP halide flux in FRT cells)
# experimental setup: FRT cells expressing human ΔF508-CFTR and YFP; forskolin stimulated
Reported EC50 values for a set of compounds

The following compounds have reported results that may help.
• COc1ccc2c(-c3cccc(C#N)c3)nn(CC(=O)N(C)c3ccc4c(c3)OC(F)(F)O4)c(=O)c2c1 [Example 63] = < 10 µM
• CCN(C(=O)c1nn(-c2ccc(C)cc2)c(=O)c2c1c1ccccc1n2C1CCC1)c1ccccc1 [Example 146] = 10 to 20 µM
• CCN(C(=O)c1nn(Cc2ccccc2)c(=O)c2c1c1ccccc1n2C)c1ccccc1 [Example 136] = > 20 µM
• CCN(C(=O)Cn1nc(Cc2cccnc2)c2cccc(C)c2c1=O)c1ccc2c(c1)OC(F)(F)O2 [Example 47] = < 10 µM
• CCN(C(=O)c1nn(-c2ccc(C)cc2)c(=O)c2c1c1ccccc1n2C)c1cc(Cl)ccc1C(=O)O [Example 134] = < 10 µM

# compound CCN(C(=O)c1nn(-c2ccccc2)c(=O)c2c1c1ccccc1n2C)c1cccc(F)c1 [Example 126] ; its EC50 = < 10 µM

# EC50 (compound: CCN(C(=O)Cn1ncc2c(c1=O)c1ccccc1n2Cc1ccccn1)c1ccc2c(c1)OC(F)(F)O2 [Example 85] ) is 10 to 20 µM

Entry CCc1ccc(N(CC)C(=O)Cn2nc(Cc3cccnc3)c3cc(OC)ccc3c2=O)cc1 [Example 36] — recorded EC50 = < 10 µM

Value of measured EC50 for the entry Cc1ccc(-n2nc(C(=O)N3CCCc4ccccc43)c3c4ccccc4n(C)c3c2=O)cc1 [Example 110] : < 10 µM

# EC50 (compound: CCc1ccc(N(CC)C(=O)Cn2nc(Cc3cccnc3)c3ccc(OC)cc3c2=O)cc1 [Example 35] ) is < 10 µM

====

# Lookup of reported EC50 keyed by entry
# target desc: human ΔF508-CFTR (Homo sapiens, UniProt P13569, DEL508-508)
# assay explanation: CFTR-YFP High Throughput Assay (YFP halide flux in FRT cells)
# experimental setup: FRT cells expressing human ΔF508-CFTR and YFP; forskolin stimulated

Below are worked cases with known answers.
- COc1ccc2c(-c3ccc(C(N)=O)cc3)nn(CC(=O)N(C)c3ccc4c(c3)OC(F)(F)O4)c(=O)c2c1: < 10 µM
- Cc1ccc(-n2nc(C(=O)N(c3ccccc3)C3CC3)c3c4ccccc4n(C)c3c2=O)cc1: < 10 µM

Entry under test: CCc1ccc(N(CC)C(=O)Cn2nc(-c3cccc4ncccc34)c3ccccc3c2=O)cc1 . Its EC50 was 10 to 20 µM

Entry CCc1ccc(N(CC)C(=O)Cn2nc(C(=O)Nc3cc(Cl)ccc3C#N)c3ccccc3c2=O)cc1 , EC50 reported as < 10 µM

Just so you know, measured EC50 for CCN(C(=O)c1nn(-c2ccc(C)cn2)c(=O)c2c1c1ccccc1n2C)c1ccccc1 came out at < 10 µM

Input CCN(C(=O)Cn1ncc2c(c1=O)c1ccccc1n2Cc1cccc(OC)c1)c1ccc2c(c1)OC(F)(F)O2 . Output EC50: 10 to 20 µM

The compound identified as CCN(C(=O)Cn1nc(Cc2cccnc2)c2cccc(OCCOC)c2c1=O)c1ccc2c(c1)OC(F)(F)O2 registered its EC50 at < 10 µM
